Task for the reader: assign each of the following compounds its reported growth.
Tested on: MOLT-4 leukemia
Assay: NCI-60 one-dose screen, 48 h (100 = growth as untreated, 0 = no growth, -100 = all killed)
Conditions: 10 µM unless noted
About 83,000 compounds went through this panel and 20% of them were active in at least one assay; those are over-represented in the sample as a whole.
Give just the numeric value; % need not be written.

Briefly, growth measured for CCc1ccc(NC(=O)N[C@@H](Cc2cccc(F)c2)C(=O)N[C@@H]2C(=O)N3CCC[C@H]3C(=O)N3CCCC[C@H]3C(=O)N[C@@H](C)C(=O)N3C[C@H](C)C[C@H]3C(=O)O[C@H]2C)c(F)c1 : 32

Briefly, growth measured for NS(=O)(=O)c1ccc(-n2cc(CC=O)nn2)cc1 : 103

Briefly, growth measured for O=c1oc2ccc(-c3ccc(F)cc3F)cc2c(=O)n1-c1ccc(F)c(F)c1 : 6.43

Briefly, growth measured for COc1ccc(N)cc1C(=O)Nc1cccc(-c2cc(=O)c3c(OC)c(OC)c(OC)cc3o2)c1 : 48.2

Briefly, growth measured for O=C(NNc1nc2cc(F)c(F)cc2n2cccc12)c1cccnn1 : 7.86

Briefly, growth measured for COc1ccc(-c2nnc(SCc3ccc(O)c4ncccc34)n2-c2ccccc2)cc1 : 17.2

Briefly, growth measured for C#CCOc1ccc(C(Nc2cc(Cl)ccc2Cl)c2nnnn2C2CCCCC2)cc1 (configuration not stated) : 68.1

Briefly, growth measured for CCN1C(=O)N(CC)C2SC(N/N=C/c3ccc(OC)cc3)=NC21 (configuration not stated) : 10.1

Briefly, growth measured for COc1ccc(-c2nc(SCC(C)C)nc(N/N=C\c3cccc([N+](=O)[O-])c3)c2C#N)cc1 : 75.1

Briefly, growth measured for Cc1ccc(/C=C/CC(=O)Nc2ccc(C(=O)Nc3ccc(F)cc3N)cc2)cn1 : 45.1

Briefly, growth measured for CCOC(=O)c1c(NC(=O)c2cccc(C(F)(F)F)c2)sc2c(CN3CCN(C)CC3)c(O)ccc12 : -27.8

Briefly, growth measured for CC1(C)CC[C@]2(C(=O)O)CC[C@]3(C)C(=CCC4[C@@]5(C)C[C@@H](O)[C@@H]6OC(c7cccc([N+](=O)[O-])c7)OC[C@@]6(C)C5CC[C@]43C)C2C1 (some centres not stated) : 48.2

Briefly, growth measured for CCCCCCNC(=O)Oc1ccc(/C(=C(\C)c2ccc(Cl)cc2)c2ccc(OCCN(C)C)cc2)cc1 : 13.4

Briefly, growth measured for Cc1ccc(Nc2ncnc3c2c(C)nn3-c2ccc([N+](=O)[O-])cc2)cc1 : 87.3

Briefly, growth measured for COc1ccc(-c2nc3cc(Cl)c(Cl)cc3n2CC(=O)N=Nc2c(O)[nH]c3ccccc23)cc1 : 47.4

Briefly, growth measured for CN(c1ccc(Cl)cc1)S(=O)(=O)c1ccc(-c2cnc(C3CC3)o2)cc1 : 16.8

Briefly, growth measured for CC(C)=CCc1c2c(c(O)c3c1O[C@]14C(=C[C@@H]5C[C@H]1C(C)(C)O[C@@]4(C/C=C(/C)C(=O)O)C5=O)C3=O)CC(O)C(C)(C)O2 (some centres not stated) : -7.09

---

Tested on: HCT-15 colon
Test: NCI-60 one-dose screen, 48 h
Details: 10 µM unless noted
This is part of a sample that, as a whole, favours compounds with a hit. Of some 83,000 tested, about 20% had one in any assay. The source made the active and inactive calls. The calls were made as follows: active = growth percent below 10; inactive = the rest.
Just give me one of these, please: 1 (yes) for active, 0 (no) for inactive

[in] Query: recorded result category for CCN1C(=O)N(CC)C2C1NN=C1SC(c3ccccc3)=CC(=O)N12 (stereo not drawn) in this test
[out] 0 (no)

[in] Query: recorded result category for CC1=C2C(=C[C@@](C)(COS(N)(=O)=O)[C@@H]2O)C(=O)[C@](C)(O)C12CC2 in this test
[out] 0 (no)

[in] Query: recorded result category for C(=C(\C1=NCCN1)n1cnc2ccccc21)/c1ccc2ccccc2c1 in this test
[out] 0 (no)

[in] Query: recorded result category for COC(=O)Nc1ccc(-c2nc(-c3cccc(O)c3)c(-c3ccnc(Br)c3)[nH]2)cc1 in this test
[out] 0 (no)

[in] Query: recorded result category for O=C1c2c(c3c4ccc(Br)cc4oc3c3[nH]c4ccccc4c23)C(=O)N1CCO in this test
[out] 0 (no)

[in] Query: recorded result category for COc1ccc(S(=O)(=O)n2cc(C=O)c3ccccc32)c(OC)c1 in this test
[out] 0 (no)

[in] Query: recorded result category for CCOC(=O)CC(=O)CSC1=NC2C(NN1)N(C)C(=O)N2C (stereo not drawn) in this test
[out] 0 (no)

[in] Query: recorded result category for C=CCn1c(SCC(=O)Nc2cccc(C(=O)/C=C/c3cccc([N+](=O)[O-])c3)c2)nc2ccccc2c1=O in this test
[out] 0 (no)

[in] Query: recorded result category for Nc1ccc(-c2nnc(SCc3ccc(O)c4ncccc34)o2)cc1 in this test
[out] 0 (no)

[in] Query: recorded result category for NS(=O)(=O)c1ccc(-n2cc(CC=O)nn2)cc1 in this test
[out] 0 (no)

[in] Query: recorded result category for O=c1oc2ccc(-c3ccc(F)cc3F)cc2c(=O)n1-c1ccc(F)c(F)c1 in this test
[out] 1 (yes)

[in] Query: recorded result category for CS(=O)(=O)c1ccc(-c2nn(-c3ccccc3)cc2/C=C/C(=O)c2ccc(Br)cc2)cc1 in this test
[out] 0 (no)

[in] Query: recorded result category for C#C[C@]1(O)CC[C@H]2[C@@H]3CC=C4c5sc(Nc6cc(Cl)ccn6)nc5CC[C@]4(C)[C@H]3CC[C@@]21C in this test
[out] 1 (yes)

[in] Query: recorded result category for CCCC(=O)NC(c1cccnc1)c1ccc2c(C)ccnc2c1O (stereo not drawn) in this test
[out] 0 (no)

[in] Query: recorded result category for COc1ccc(-c2ccnc3c(C#N)c(Nc4ccccc4)nn23)cc1OC in this test
[out] 0 (no)

[in] Query: recorded result category for c1ccc(-c2c(-c3ccccc3)[n+](Cc3ccc4ccccc4c3)c(-c3ccccc3)n2Cc2ccc3ccccc3c2)cc1 in this test
[out] 1 (yes)

[in] Query: recorded result category for CC1(C)CC[C@]2(C(=O)N3CCCNCC3)CC[C@]3(C)C(=CC[C@@H]4[C@@]5(C)CCC(=O)C(C)(C)[C@@H]5CC[C@]43C)[C@H]2C1 in this test
[out] 0 (no)

[in] Query: recorded result category for C#C[C@]1(O)CC[C@H]2[C@@H]3CC=C4c5sc(Nc6ccc(OC)nc6)nc5CC[C@]4(C)[C@H]3CC[C@@]21C in this test
[out] 1 (yes)

[in] Query: recorded result category for O=C1[C@@H]2Cc3c([nH]c4ccccc34)[C@H](c3c(Cl)cccc3Cl)N2C(=O)CN1C1CCN(Cc2ccccc2)CC1 in this test
[out] 1 (yes)

[in] Query: recorded result category for CCCCSc1nnc(-c2ccc(-c3ccc(Cl)cc3)nc2C)o1 in this test
[out] 0 (no)

[in] Query: recorded result category for COc1ccc(NC2=C(Cl)C(=O)C(C)=C(C)C2=O)cc1 in this test
[out] 0 (no)

[in] Query: recorded result category for O=c1c2ccccc2nc(COc2ccccc2)n1/N=C/C=C/c1ccccc1 in this test
[out] 0 (no)

[in] Query: recorded result category for COc1cc(/C=N/n2cnc3oc(-c4ccccc4)cc3c2=N)cc(CN2CCCC2)c1O in this test
[out] 1 (yes)

[in] Query: recorded result category for CC[C@@](C)(NC(=O)C(C)(C)NC(=O)[C@@H](NC(=O)[C@@H]1CCCN1C(=O)C(C)(C)NC(=O)[C@H](CC(C)C)NC(=O)CNC(=O)C(C)(C)NC(=O)[C@@H](NC(=O)C(C)(C)NC(=O)[C@H](CCC(N)=O)NC(=O)[C@H](C)NC(=O)C(C)(C)NC(=O)[C@H](C)NC(=O)C(C)(C)NC(=O)[C@H](C)NC(=O)C(C)(C)NC(C)=O)C(C)C)C(C)C)C(=O)N[C@@H](CCC(N)=O)C(=O)N[C@@H](CCC(N)=O)C(=O)N[C@H](CO)CC1CCCCC1 in this test
[out] 0 (no)

[in] Query: recorded result category for COc1ccc([C@H]2[C@H](O)C(=O)N2c2cc(OC)c(OC)c(OC)c2)cc1O in this test
[out] 1 (yes)

[in] Query: recorded result category for CN1CCN(Cc2ccc(NC(=O)c3cncc(C#Cc4cnc5ccc(O[C@H]6CCOC6)nn45)c3)cc2C(F)(F)F)CC1 in this test
[out] 1 (yes)

[in] Query: recorded result category for O=C(Nc1ccc(Cl)cc1)Nc1nc2ccc([N+](=O)[O-])cc2s1 in this test
[out] 1 (yes)

[in] Query: recorded result category for O=C(Nc1cccc(Cl)c1)Nc1nc2ccc(-c3cccc4ccccc34)cc2s1 in this test
[out] 0 (no)

[in] Query: recorded result category for C(=C(\C1=NCCN1)n1cnc2ccccc21)/c1cccc2ccccc12 in this test
[out] 0 (no)

[in] Query: recorded result category for O=C(CCCCCCN1CC(=O)N2[C@@H](c3cccc(Cl)c3)c3[nH]c4ccccc4c3C[C@H]2C1=O)NO in this test
[out] 0 (no)

[in] Query: recorded result category for COc1cc2cc(Oc3ccc(NC(=O)Nc4cc(C(F)(F)F)cc(C(F)(F)F)c4)cc3)c(C)nc2cc1OCCN(C)C in this test
[out] 0 (no)

[in] Query: recorded result category for Cc1cn(-c2cc(NC(=O)c3cncc(C#Cc4cnc5ccc(O[C@H]6CCOC6)nn45)c3)cc(C(F)(F)F)c2)cn1 in this test
[out] 0 (no)

[in] Query: recorded result category for O=C(c1ccc(O)cc1)[C@@H]1[C@@H]2CCCN2[C@@]2(C(=O)N(C(=O)c3ccc(F)cc3)c3ccccc32)[C@H]1c1ccc(F)cc1 in this test
[out] 0 (no)
